- SYSTEM TESTED: Retinaldehyde dehydrogenase 3 (Homo sapiens)
- ASSAY PROCEDURE: qHTS for Inhibitors of the Aldehyde Dehydrogenase Family (ALDH1A3) Primary screen (AID 2061315)
- RUN PARAMETERS: ALDH inhibition qHTS; series mostly up to 56 µM
Inconclusive results are not listed. Active and inactive are the calls of the source. Calls come from the whole dose curve; as a rule, active = well fitted inhibition curve with a large enough effect; inconclusive = small, poorly fitted or top-dose-only effect; inactive = no such curve, though single readings can be large or run the other way.
ASSAY READOUT: activity change, negative = inhibition

[[record]]
compound = "CC(=O)O[C@]1(C(C)=O)CC[C@H]2[C@@H]3C=C(Cl)C4=CC(=O)[C@@H]5C[C@@H]5[C@]4(C)[C@H]3CC[C@@]21C"
data_value = "inactive"

[[record]]
compound = "O=C(OC[C@H]1O[C@H](O[C@H]2CO[C@H](CO)[C@@H](O)[C@@H]2O)[C@H](O)[C@@H](O)[C@H]1O)c1ccccc1"
data_value = "inactive"

[[record]]
compound = "CC(C)NCC(C(=O)N1CCN(c2ncnc3c2C(C)CC3O)CC1)c1ccc(Cl)cc1 (configuration not stated)"
data_value = "inactive"

[[record]]
compound = "CC(C)CC(=O)NCCn1cc(C(=O)O)c(=O)cc1C(O)c1ccccc1 (configuration not stated)"
data_value = "inactive"

[[record]]
compound = "O=C1CC(c2ccccc2)Cc2[nH]c(=O)c(-c3nc(-c4ccc(F)cc4)cs3)cc21 (configuration not stated)"
data_value = "inactive"

[[record]]
compound = "C[C@@H]1CC[C@]2(C(=O)O)CC[C@]3(C)C(=CCC4[C@@]5(C)CC[C@H](O)C(C)(C)C5C(O)C[C@]43C)[C@@H]2[C@]1(C)O (some centres not stated)"
data_value = "inactive"

[[record]]
compound = "CC(C)C1(O)NC(=O)C(CC2(O)c3ccccc3N3C(=O)C(C)(C)NC32)n2c1nc1ccccc1c2=O (configuration not stated)"
data_value = "inactive"

[[record]]
compound = "CC(C)(C)c1ccc(-c2nc3c(N4CCN(Cc5ccc6nccnc6c5)CC4)cccc3[nH]2)cc1"
data_value = "inactive"

[[record]]
compound = "O=C(Nc1cccc(Br)c1)c1cccc(S(=O)(=O)N2CCCCCC2)c1"
data_value = "inactive"

[[record]]
compound = "CC12CCC3C(C)(C)C(O)CCC3(C)C1Cc1c(oc(C(=O)O)cc1=O)O2 (configuration not stated)"
data_value = "inactive"

[[record]]
compound = "CC1=C(C(=O)O)/C(=C\\CO[C@@H]2O[C@H](CO)[C@@H](O)[C@H](O)[C@H]2O)C(OC(=O)/C=C/c2ccc(O)cc2)C1 (some centres not stated)"
data_value = "inactive"

[[record]]
compound = "CNc1nc(Nc2cn(C(C)(C)C#N)nc2C)ncc1C(F)(F)F"
data_value = "inactive"

[[record]]
compound = "Nc1nc(NC2CC2)cc(-c2cccc(Cl)c2Cl)n1"
data_value = "inactive"

[[record]]
compound = "COC(=O)C(Cc1ccccc1)NC(=O)c1ccccc1 (configuration not stated)"
data_value = "inactive"

[[record]]
compound = "CC1(C)CCCC2(C)C1CC(=O)C13CC(CCC12)C(O)(CO)C3 (configuration not stated)"
data_value = "inactive"

[[record]]
compound = "CC/C=C/C(O)C(O)C1=C(C)C(=O)C2(O1)C(=O)NC(OC)(C(=O)c1ccccc1)C2O (configuration not stated)"
data_value = "inactive"

[[record]]
compound = "COC(=O)C1=CO[C@@H](O[C@@H]2O[C@H](CO)[C@@H](O)[C@H](O)[C@H]2O)[C@@H]2[C@@H](C)[C@@H](OC(=O)/C=C/c3ccccc3)[C@@H](O)[C@H]12"
data_value = "inactive"

